target: Human recombinant MMP-13 (Homo sapiens, UniProt P45452); construct: made in house; host or cells: baculovirus / insect cells; test: In vitro MMP inhibition, IC50 determination (fluorogenic substrate I); type: biochemical; conditions: substrate (I) 4 μM, room temperature; values not in parenthesis
pIC50: −log10 of the molar value.
Quantity measured: pIC50

# annotated cases, reported pIC50 shown
| Structure | pIC50 |
| --- | --- |
| O=C1c2ccccc2C(=O)N1CCCOc1ccc(S(=O)(=O)C2(C(=O)NO)CCOCC2)cc1 | 8.46 |
| COc1ccc(/C(C#N)=C/CCCOc2ccc(S(=O)(=O)C3(C(=O)NO)CCOCC3)cc2)cc1 | 9.70 |
| O=C(OCCCCOc1ccc(S(=O)(=O)C2(C(=O)NO)CCOCC2)cc1)N1CCc2ccccc2C1 | 8.52 |
| COCCN1CCC(C(=O)NO)(S(=O)(=O)c2ccc(OCCCn3nnc(-c4ccc(OC(F)(F)F)cc4)n3)cc2)CC1 | 9.70 |
| O=C(NO)C1(S(=O)(=O)c2ccc(OCCCc3cccc(-c4ccc(F)cc4)c3)cc2)CCOCC1 | 9.05 |

P: O=C(NO)C1(S(=O)(=O)c2ccc(OCCCn3nnc(-c4ccc(OC(F)(F)F)cc4)n3)cc2)CCN(C2CC2)CC1
Q: CCN1CCC(C(=O)NO)(S(=O)(=O)c2ccc(OCCCc3cccc(-c4ccccc4)c3)cc2)CC1
R: Cc1ccccc1-c1nnc(CCCOc2ccc(S(=O)(=O)C3(C(=O)NO)CCOCC3)cc2)o1
Put the items in sequence by pIC50, from largest down. To answer, arrange all of the labels according to the requested order.
P, R, Q
(P: 9.52, R: 9.10, Q: 8.51)

----------
biological target: Human recombinant MMP-9 (Homo sapiens, UniProt P14780); construct: made in house; host or cells: MMP-9-transfected HT1080 cells (spent media); experiment: In vitro MMP inhibition, Ki determination (fluorogenic substrate II); assay type: biochemical; conditions: value in parenthesis
Sequence (P14780 107-707 limits assumed): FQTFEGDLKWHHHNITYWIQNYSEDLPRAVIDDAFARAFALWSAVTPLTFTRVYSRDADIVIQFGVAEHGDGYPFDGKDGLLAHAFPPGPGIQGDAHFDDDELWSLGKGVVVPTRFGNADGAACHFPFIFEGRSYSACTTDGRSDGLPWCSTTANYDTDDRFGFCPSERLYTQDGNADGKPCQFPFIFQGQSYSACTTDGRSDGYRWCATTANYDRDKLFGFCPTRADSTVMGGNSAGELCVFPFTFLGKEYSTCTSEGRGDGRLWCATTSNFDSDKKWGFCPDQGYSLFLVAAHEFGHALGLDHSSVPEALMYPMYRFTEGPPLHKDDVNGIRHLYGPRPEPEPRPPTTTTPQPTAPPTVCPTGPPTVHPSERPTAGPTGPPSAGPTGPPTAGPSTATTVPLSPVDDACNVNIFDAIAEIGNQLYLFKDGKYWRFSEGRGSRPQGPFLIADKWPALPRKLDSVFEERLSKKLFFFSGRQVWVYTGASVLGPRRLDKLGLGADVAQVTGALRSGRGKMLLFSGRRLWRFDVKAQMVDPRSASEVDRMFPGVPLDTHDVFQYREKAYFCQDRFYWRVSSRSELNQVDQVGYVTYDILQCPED
Quantity measured: Ki (nM)

| Structure | Ki / nM |
| --- | --- |
| O=C1Nc2ccc(-c3noc(CCCOc4ccc(S(=O)(=O)C5(C(=O)NO)CCN(C6CC6)CC5)cc4)n3)cc21 | 310 |

P: NC(=O)c1cccc(-c2noc(CCCOc3ccc(S(=O)(=O)C4(C(=O)NO)CCN(C5CC5)CC4)cc3)n2)c1
Q: O=C(NO)C1(S(=O)(=O)c2ccc(OCCOc3cccc(-c4ccccc4)c3)cc2)CCOCC1
Which item exceeds the other in Ki, P or Q ? API: response body contains the label of the selected item.
Q

----------
Molecular target: Human recombinant MMP-2 (Homo sapiens)
Construct: made in house; host or cells: MMP-2-transfected p2AHT2 cells
Sequence (P08253 110-660): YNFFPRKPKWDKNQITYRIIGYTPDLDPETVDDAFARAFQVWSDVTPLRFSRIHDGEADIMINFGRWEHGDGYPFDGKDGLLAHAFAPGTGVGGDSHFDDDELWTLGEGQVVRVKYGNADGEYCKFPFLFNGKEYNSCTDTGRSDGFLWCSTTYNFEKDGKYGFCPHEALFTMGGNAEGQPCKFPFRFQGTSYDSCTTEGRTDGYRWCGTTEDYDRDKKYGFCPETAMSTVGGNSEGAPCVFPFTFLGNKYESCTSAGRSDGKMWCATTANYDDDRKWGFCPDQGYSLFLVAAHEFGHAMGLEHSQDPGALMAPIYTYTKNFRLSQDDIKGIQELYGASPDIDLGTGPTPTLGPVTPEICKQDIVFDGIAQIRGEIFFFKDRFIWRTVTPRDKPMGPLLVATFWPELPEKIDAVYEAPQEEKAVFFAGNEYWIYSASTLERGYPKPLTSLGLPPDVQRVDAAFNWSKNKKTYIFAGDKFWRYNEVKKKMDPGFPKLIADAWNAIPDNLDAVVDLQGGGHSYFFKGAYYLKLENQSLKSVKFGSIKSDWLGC
Experiment: In vitro MMP inhibition, IC50 determination (fluorogenic substrate I)
Type: biochemical
Conditions: value outside parentheses
Procedure: Several hydroxamates and salts thereof were analyzed in in vitro assays to determine their ability to inhibit the MMP cleavage of peptide substrates. Inhibition (Ki) and IC50 constants were calculated from the assayed hydroxamate-MMP interactions. […] The assays from which the IC50 determinations were made were performed as follows. […] The assayed hydroxamate samples were, incubated in Microfluorrm White Plates (Dynatech, Chantilly, VA) and analyzed on a Perkin Elmer L550 plate reader (Norwalk, Conn.). […]
Quantity measured: IC50 (nM)

As a guide, the following entries are already answered.
| Structure | Units label | IC50 |
| --- | --- | --- |
| O=C(NO)C1(S(=O)(=O)c2ccc(OCCOCc3cccc([N+](=O)[O-])c3)cc2)CCOCC1 | nM | 7.13 |
| NCc1ccc(OCCOc2ccc(S(=O)(=O)C3(C(=O)NO)CCOCC3)cc2)cc1 | nM | 1.1 |
| C=Cc1ccc(-c2cccc(CCCOc3ccc(S(=O)(=O)C4(C(=O)NO)CCOCC4)cc3)c2)cc1 | nM | 2310 |
| O=C(NO)C1(S(=O)(=O)c2ccc(OCCCc3cccc(-c4ccccc4O)c3)cc2)CCOCC1 | nM | 195 |
| O=C(CCOc1ccc(S(=O)(=O)C2(C(=O)NO)CCOCC2)cc1)c1ccccc1 | nM | 1.9 |

I: O=C(Cc1ccsc1)NCCOc1ccc(S(=O)(=O)C2(C(=O)NO)CCOCC2)cc1
II: CC(C)CCCc1cccc(CCCOc2ccc(S(=O)(=O)C3(C(=O)NO)CCOCC3)cc2)c1
III: O=C(NCCSc1ccc(S(=O)(=O)C2(C(=O)NO)CCOCC2)cc1)c1cc2ccccc2[nH]1
Order the records, beginning with the lowest IC50 and ending with the highest. // respond by listing labels in the order requested
I, III, II
(I: 1.9 nM, III: 6.5 nM, II: 1230 nM)

----------
target: Human recombinant MMP-13 (Homo sapiens); construct: made in house; host or cells: baculovirus / insect cells; test: In vitro MMP inhibition, Ki determination (fluorogenic substrate II); format: biochemical; details: value in parentheses
pKi: −log10 of the molar value.
Quantity measured: pKi

Use these answered entries as a reference point.
| Structure | pKi |
| --- | --- |
| O=C(NO)C1(S(=O)(=O)c2ccc(OCCCOCc3ccncc3)cc2)CCOCC1 | 9.58 |
| COCCN1CCC(C(=O)NO)(S(=O)(=O)c2ccc(OCCc3cccc(-c4ccc(F)c(F)c4)c3)cc2)CC1 | 8.73 |
| O=C(NO)C1(S(=O)(=O)c2ccc(OCCCc3cccc(-c4coc5ccccc45)c3)cc2)CCOCC1 | 7.71 |

A: COCCN1CCC(C(=O)NO)(S(=O)(=O)c2ccc(OCCc3cccc(-c4cccc(F)c4)c3)cc2)CC1
B: O=C(NO)C1(S(=O)(=O)c2ccc(OCCCc3cncc(-c4ccc(F)cc4)c3)cc2)CCOCC1
C: O=C(Cc1csc2ccccc12)NCCOc1ccc(S(=O)(=O)C2(C(=O)NO)CCOCC2)cc1
D: O=C(NO)C1(S(=O)(=O)c2ccc(OCCCc3cccc(-c4ccoc4)c3)cc2)CCOCC1
E: O=C(NO)C1(S(=O)(=O)c2ccc(OCCCc3cccc(-c4ccc([N+](=O)[O-])cc4)c3)cc2)CCOCC1
Rank the items in ascending order with respect to pKi. Form field (ranking): labels in requested order.
E, D, A, C, B
(E: 8.12, D: 8.33, A: 8.95, C: 9.40, B: 9.63)

P: COCCN1CCC(C(=O)NO)(S(=O)(=O)c2ccc(OCCc3cccc(-c4ccccc4F)c3)cc2)CC1
Q: O=C(NO)C1(S(=O)(=O)c2ccc(OCCCc3cc(-c4ccc(F)cc4F)cs3)cc2)CCOCC1
In the pair P and Q , the larger recorded pKi belongs to which? Label of pick, please.
P

A: O=C(NO)C1(S(=O)(=O)c2ccc(OCCCc3cncc(-c4ccccc4)c3)cc2)CCOCC1
B: O=C(NO)C1(S(=O)(=O)c2ccc(OCCCc3cccc(-n4ccnc4)c3)cc2)CCOCC1
C: CCCc1ccc(CCCOc2ccc(S(=O)(=O)C3(C(=O)NO)CCOCC3)cc2)cn1
D: O=C(NO)C1(S(=O)(=O)c2ccc(OCCCc3cccc(-c4ccsc4)c3)cc2)CCOCC1
Hey, quick one: sort these by pKi, low to high? Form entry: labels listed in requested order.
D, B, C, A

a: COCCN1CCC(C(=O)NO)(S(=O)(=O)c2ccc(OCCc3cccc(-c4ccc(F)cc4)c3)cc2)CC1
b: CCCCc1ccc(CCCOc2ccc(S(=O)(=O)C3(C(=O)NO)CCOCC3)cc2)cn1
Kindly identify which of a and b has the larger recorded pKi value. Reply briefly: the label of your chosen item.
b

1: O=C(NO)C1(S(=O)(=O)c2ccc(OCCCc3nc(-c4ccccc4)no3)cc2)CCOCC1
2: CCCCC(=O)CCCOc1ccc(S(=O)(=O)C2(C(=O)NO)CCOCC2)cc1
3: O=C(NO)C1(S(=O)(=O)c2ccc(OCCCc3cccc(-c4cccc5ccccc45)c3)cc2)CCOCC1
In this exercise, place the 3 molecules in ascending sequence of their recorded pKi. Respond with the label ranking, as requested.
3, 1, 2

a: O=C(NCCSc1ccc(S(=O)(=O)C2(C(=O)NO)CCN(C3CC3)CC2)cc1)c1cc2ccccc2o1
b: CCc1ccc(CCCOc2ccc(S(=O)(=O)C3(C(=O)NO)CCOCC3)cc2)cn1
c: O=C(CCCOc1ccc(S(=O)(=O)C2(C(=O)NO)CCOCC2)cc1)Nc1cccc(I)c1
d: CCC(=O)c1cccc(CCCOc2ccc(S(=O)(=O)C3(C(=O)NO)CCOCC3)cc2)c1
Arrange these molecules by their pKi, starting with the largest number. List labels; respect the requested ordering.
c, b, a, d

a: O=C(COc1ccc(S(=O)(=O)C2(C(=O)NO)CCOCC2)cc1)c1cccc(-c2ccccc2)c1
b: C#Cc1ccc(-c2cccc(CCCOc3ccc(S(=O)(=O)C4(C(=O)NO)CCN(CCOC)CC4)cc3)c2)cc1
Between a and b , whose measured pKi reads higher? State your choice using its label.
b

A: O=C(NO)C1(S(=O)(=O)c2ccc(OCCCOc3cccnc3)cc2)CCOCC1
B: CCCCCCCOc1ccc(S(=O)(=O)C2(C(=O)NO)CCOCC2)cc1
Recorded pKi values differ for A and B ; which one is higher? Response format: the label of the selected entry.
B
